Listing of recorded pKi by entry.
target: Sodium-dependent dopamine transporter (Rattus norvegicus); experiment: Affinity at rat dopamine transporter using [125I]RTI-55 displacement.
Sequence (P23977 whole entry): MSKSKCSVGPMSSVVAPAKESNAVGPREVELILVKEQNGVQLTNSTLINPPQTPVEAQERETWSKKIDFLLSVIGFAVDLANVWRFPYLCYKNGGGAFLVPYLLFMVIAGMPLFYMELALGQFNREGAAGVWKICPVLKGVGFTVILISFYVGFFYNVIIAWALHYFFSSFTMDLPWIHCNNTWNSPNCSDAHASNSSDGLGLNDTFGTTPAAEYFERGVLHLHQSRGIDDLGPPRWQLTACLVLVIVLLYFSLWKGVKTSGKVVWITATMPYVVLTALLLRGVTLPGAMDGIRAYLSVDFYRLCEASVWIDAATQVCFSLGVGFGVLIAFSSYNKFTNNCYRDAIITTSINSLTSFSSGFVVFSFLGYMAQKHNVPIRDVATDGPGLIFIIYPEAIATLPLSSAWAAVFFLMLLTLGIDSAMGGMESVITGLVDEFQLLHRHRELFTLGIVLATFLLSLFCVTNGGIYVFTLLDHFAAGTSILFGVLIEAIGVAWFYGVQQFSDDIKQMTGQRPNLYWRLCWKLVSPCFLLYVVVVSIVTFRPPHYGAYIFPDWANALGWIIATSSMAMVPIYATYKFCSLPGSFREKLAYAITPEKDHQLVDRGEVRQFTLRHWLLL
Field pKi (float): negative decimal logarithm of the concentration in molar.

As a guide, the following entries are already answered.
{"chemical_structure": "Brc1ccc(CN2CCC(CCOC(c3ccccc3)c3ccccc3)CC2)cc1", "pKi": 8.19}
{"chemical_structure": "Fc1ccc(C(OCCC2CCN(Cc3ccccc3)CC2)c2ccc(F)cc2)cc1", "pKi": 8.00}
{"chemical_structure": "N#Cc1ccc(CN2CCC(CCOC(c3ccccc3)c3ccccc3)CC2)cc1", "pKi": 8.24}
{"chemical_structure": "Fc1ccc(C(OCCC2CCN(Cc3cccc4ccccc34)CC2)c2ccc(F)cc2)cc1", "pKi": 7.80}
{"chemical_structure": "Clc1ccc(CN2CCC(CCOC(c3ccccc3)c3ccccc3)CC2)cc1", "pKi": 8.42}
{"chemical_structure": "FC(F)(F)c1ccc(CN2CCC(CCOC(c3ccccc3)c3ccccc3)CC2)cc1", "pKi": 8.46}
{"chemical_structure": "COc1ccc(CN2CCC(CCOC(c3ccc(F)cc3)c3ccc(F)cc3)CC2)cc1", "pKi": 8.10}
{"chemical_structure": "COc1cccc(CN2CCC(CCOC(c3ccc(F)cc3)c3ccc(F)cc3)CC2)c1", "pKi": 7.88}
{"chemical_structure": "N#Cc1ccc(CN2CCC(CCOC(c3ccc(F)cc3)c3ccc(F)cc3)CC2)cc1", "pKi": 8.92}
{"chemical_structure": "Cc1ccc(CN2CCC(CCOC(c3ccc(F)cc3)c3ccc(F)cc3)CC2)cc1", "pKi": 8.24}

Ask: // query pKi value for entry Fc1ccc(C(OCCC2CCN(Cc3ccc(C(F)(F)F)cc3)CC2)c2ccc(F)cc2)cc1
Reply: 8.96

Ask: Let us now turn to O=[N+]([O-])c1ccc(CN2CCC(CCOC(c3ccccc3)c3ccccc3)CC2)cc1
Reply: 8.60

Ask: Let us now turn to Fc1ccc(C(OCCC2CCN(Cc3ccc(Br)cc3)CC2)c2ccc(F)cc2)cc1
Reply: 8.96

Ask: Let us now turn to O=[N+]([O-])c1ccc(CN2CCC(CCOC(c3ccc(F)cc3)c3ccc(F)cc3)CC2)cc1
Reply: 8.92

Ask: Let us now turn to COc1ccccc1CN1CCC(CCOC(c2ccc(F)cc2)c2ccc(F)cc2)CC1
Reply: 7.20
